test system: DLD-1; test: NCI tumour cell line growth inhibition, 48 h
Active and inactive are the calls of the source. Rule as the data show it: active = GI50 up to about 1.1 µM and inactive = higher.
readout: GI50

For COc1nc(O)c(N)c(NC2OC(CO)C(O)C(O)C2O)n1 (centres undefined) , what is its reported GI50?
> 100 µM (inactive)

For `CCN(CC)CC(C)(C)C(=O)/C=C/c1ccc(C)cc1` , what is its reported GI50?
11.5 µM (inactive)

For CCCCCCC/C=C1\CCC(CN(C)C)C1=O (centres undefined) , what is its reported GI50?
7.1 µM (inactive)

For `CC(=O)NC1=C(NCC(C)(C)C)C(=O)c2ccccc2C1=O` , what is its reported GI50?
99.5 µM (inactive)

Data provenance is ChEMBL document CHEMBL1201862.
